Listed below: residual activity values for each entry.
# testTarget: SRMS (human) (UniProt Q9H3Y6)
# Sequence (Q9H3Y6 whole entry, looked up): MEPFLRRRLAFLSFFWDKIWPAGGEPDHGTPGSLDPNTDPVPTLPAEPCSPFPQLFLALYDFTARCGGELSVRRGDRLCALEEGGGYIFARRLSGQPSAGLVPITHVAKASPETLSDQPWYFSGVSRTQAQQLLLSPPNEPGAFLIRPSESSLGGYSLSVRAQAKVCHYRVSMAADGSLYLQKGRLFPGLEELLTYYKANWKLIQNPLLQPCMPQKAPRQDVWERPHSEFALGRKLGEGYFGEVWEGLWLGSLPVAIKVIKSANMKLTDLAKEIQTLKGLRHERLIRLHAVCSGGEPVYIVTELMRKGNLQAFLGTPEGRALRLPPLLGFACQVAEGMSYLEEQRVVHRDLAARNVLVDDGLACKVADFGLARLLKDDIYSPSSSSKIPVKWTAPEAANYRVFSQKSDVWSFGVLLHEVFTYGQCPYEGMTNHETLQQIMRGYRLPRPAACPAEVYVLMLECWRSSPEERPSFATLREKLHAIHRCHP
# protocolDetails: radiometric filter-binding kinase assay, Kinase HotSpot
# setupConditions: compound 0.5 µM; ATP 10 µM
Write the value in % as a bare number.

itemSmiles: O=c1cc(N2CCNCC2)oc2c(-c3ccccc3)cccc12
residual activity, %: 104

itemSmiles: Nc1n[nH]c2nnc(-c3c(-c4ccccc4)nn4ccccc34)cc12
residual activity, %: 93

itemSmiles: COc1cc2ncnc(Nc3ccc(F)c(Cl)c3)c2cc1OCCCN1CCOCC1
residual activity, %: 96.4

# ---- query compound ----
Which value of residual activity has been reported for COc1ccc(-c2cnc3c(-c4ccsc4)cnn3c2)cc1 in the records?
97.4
